System: Galium aparine
experiment: Herbicidal activity, postemergence test
Type: in vivo
conditionInfo: post; sprayed onto seedling plants, 800 g of active material per hectare; evaluated 2 weeks after treatment
Experimental: […] Results of herbicide evaluation are expressed on a rating scale (0-9). […] Preemergence and postemergence treatments are evaluated at 3 and 2 weeks after treatment, respectively.
Catalogue of compounds with associated GALAP control rating (0-9)

For orientation, consider the following solved cases.
| compound | GALAP control rating (0-9) |
| --- | --- |
| COc1ccc(-c2nnc(C(=O)N[C@@H](C)c3ccccc3)o2)cc1 [Example 19] | 5 (definite injury) |
| C[C@H](NC(=O)c1nnc(-c2ccc(F)cc2)o1)c1ccccc1 [Example 7] | 7 (good herbicidal effect) |
| O=C(NCc1cccs1)c1nnc(-c2ccc(F)cc2)o1 [Example 8] | 0 (no effect) |

Request: Form field - read-out: GALAP control rating (0-9); system: Galium aparine; submitted item: C[C@H](NC(=O)c1nnc(N(C)C)o1)c1ccccc1 [Example 6]
Response: 2 (slight effect)

Request: Form field - read-out: GALAP control rating (0-9); system: Galium aparine; submitted item: C[C@H](NC(=O)c1nnc(-c2ccc(C(C)(C)C)cc2)o1)c1ccccc1 [Example 16]
Response: 7 (good herbicidal effect)

Request: Form field - read-out: GALAP control rating (0-9); system: Galium aparine; submitted item: C[C@H](NC(=O)c1nnc(C(C)(C)C)o1)c1ccccc1 [Example 2]
Response: 4 (injury)

Request: Form field - read-out: GALAP control rating (0-9); system: Galium aparine; submitted item: C[C@H](NC(=O)c1nnc(-c2ccc(F)cc2F)o1)c1ccccc1 [Example 32]
Response: 6 (herbicidal effect)

Request: Form field - read-out: GALAP control rating (0-9); system: Galium aparine; submitted item: C[C@H](NC(=O)c1nnc(C=Cc2ccccc2)o1)c1ccccc1 [Example 17]
Response: 2 (slight effect)

Request: Form field - read-out: GALAP control rating (0-9); system: Galium aparine; submitted item: C[C@H](NC(=O)c1nnc(-c2cc(Cl)cc(Cl)c2)o1)c1ccccc1 [Example 28]
Response: 0 (no effect)

Request: Form field - read-out: GALAP control rating (0-9); system: Galium aparine; submitted item: C[C@H](NC(=O)c1nnc(-c2ccc(Cl)cc2)o1)c1ccccc1 [Example 12]
Response: 6 (herbicidal effect)

Request: Form field - read-out: GALAP control rating (0-9); system: Galium aparine; submitted item: CC(NC(=O)c1nnc(C(C)(C)C)o1)c1cccs1 (racemic) [Example 5]
Response: 5 (definite injury)

Request: Form field - read-out: GALAP control rating (0-9); system: Galium aparine; submitted item: CC(NC(=O)c1nnc(-c2ccccc2)o1)c1cccs1 (racemic) [Example 1]
Response: 6 (herbicidal effect)

Request: Form field - read-out: GALAP control rating (0-9); system: Galium aparine; submitted item: C[C@H](NC(=O)c1nnc(-c2ccccc2F)o1)c1ccccc1 [Example 10]
Response: 6 (herbicidal effect)

====

Test system: Alopecurus myosuroides
experiment: Herbicidal activity, preemergence test
Assay type: in vivo
conditionInfo: pre; sprayed onto soil, 800 g of active material per hectare; evaluated 3 weeks after treatment
Experimental: […] Results of herbicide evaluation are expressed on a rating scale (0-9). […] Preemergence and postemergence treatments are evaluated at 3 and 2 weeks after treatment, respectively.
endpoint: ALOMY control rating (0-9)

For orientation, consider the following solved cases.
| compound | experimentalSystem | result |
| --- | --- | --- |
| CC(NC(=O)c1nnc(-c2ccccc2)o1)c1cccs1 (racemic) | Alopecurus myosuroides | 0 (no effect) |
| COc1ccc(-c2nnc(C(=O)N[C@@H](C)c3ccccc3)o2)cc1 | Alopecurus myosuroides | 0 (no effect) |
| C[C@H](NC(=O)c1nnc(C(C)(C)C)o1)c1ccccc1 | Alopecurus myosuroides | 2 (slight effect) |

From here, focus on the item given below.
Request: Param item = C[C@H](NC(=O)c1nnc(-c2ccc(F)cc2F)o1)c1ccccc1 ; retrieve measured ALOMY control rating (0-9).
Response: 3 (moderate effect)

====

Tested on: Galium aparine
experiment: Herbicidal activity, preemergence test
Type: in vivo
conditionInfo: pre; sprayed onto soil, 800 g of active material per hectare; evaluated 3 weeks after treatment
endpoint: GALAP control rating (0-9)

| compound | endpoint | result |
| --- | --- | --- |
| O=C(NCc1cccs1)c1nnc(-c2ccccc2F)o1 | GALAP control rating (0-9) | 0 (no effect) |
| CC(NC(=O)c1nnc(C(C)(C)C)o1)c1cccs1 (racemic) | GALAP control rating (0-9) | 0 (no effect) |
| C[C@H](NC(=O)c1nnc(-c2ccc(Cl)cc2)o1)c1ccccc1 | GALAP control rating (0-9) | 0 (no effect) |
| C[C@H](NC(=O)c1nnc(-c2ccc(Cl)cc2Cl)o1)c1ccccc1 | GALAP control rating (0-9) | 0 (no effect) |
| C[C@H](NC(=O)c1nnc(-c2ccc(Cl)c(Cl)c2)o1)c1ccccc1 | GALAP control rating (0-9) | 0 (no effect) |
| C[C@H](NC(=O)c1nnc(-c2ccc(C(C)(C)C)cc2)o1)c1ccccc1 | GALAP control rating (0-9) | 0 (no effect) |
| CC(NC(=O)c1nnc(-c2ccccc2)o1)c1cccs1 (racemic) | GALAP control rating (0-9) | 0 (no effect) |
| C[C@H](NC(=O)c1nnc(-c2ccccc2Cl)o1)c1ccccc1 | GALAP control rating (0-9) | 0 (no effect) |

Request: Param item = C[C@H](NC(=O)c1nnc(-c2c(Cl)cccc2Cl)o1)c1ccccc1 ; retrieve measured GALAP control rating (0-9).
Response: 0 (no effect)

====

Test system: Lamium purpureum
experiment: Herbicidal activity, preemergence test
Assay type: in vivo
conditionInfo: pre; sprayed onto soil, 800 g of active material per hectare; evaluated 3 weeks after treatment
endpoint: LAMPU control rating (0-9)

For orientation, consider the following solved cases.
| smilesRecord | LAMPU control rating (0-9) |
| --- | --- |
| C[C@H](NC(=O)c1nnc(C(C)(C)C)o1)c1ccccc1 | 0 (no effect) |
| C[C@H](NC(=O)c1nnc(-c2ccccc2)o1)c1ccccc1 | 3 (moderate effect) |
| C[C@H](NC(=O)c1nnc(-c2ccc(C(F)(F)F)cc2)o1)c1ccccc1 | 7 (good herbicidal effect) |
| C[C@H](NC(=O)c1nnc(-c2ccccc2Cl)o1)c1ccccc1 | 5 (definite injury) |

From here, focus on the item given below.
Request: Param item = C[C@H](NC(=O)c1nnc(-c2ccc(Cl)c(Cl)c2)o1)c1ccccc1 ; retrieve measured LAMPU control rating (0-9).
Response: 0 (no effect)

====

Test system: Galium aparine
experiment: Herbicidal activity, preemergence test
Type: in vivo
conditionInfo: pre; sprayed onto soil, 800 g of active material per hectare; evaluated 3 weeks after treatment
Catalogue of compounds with associated GALAP control rating (0-9)

| smilesRecord | result |
| --- | --- |
| O=C(NCc1cccs1)c1nnc(-c2ccc(F)cc2)o1 | 0 (no effect) |
| C[C@H](NC(=O)c1nnc(-c2ccc(C(F)(F)F)cc2)o1)c1ccccc1 | 0 (no effect) |
| O=C(NCc1ccccc1)c1nnc(-c2ccc(F)cc2)o1 | 0 (no effect) |
| C[C@H](NC(=O)c1nnc(-c2ccccc2)o1)c1ccccc1 | 0 (no effect) |

Request: Param item = C[C@H](NC(=O)c1nnc(C(C)(C)C)o1)c1ccccc1 ; retrieve measured GALAP control rating (0-9).
Response: 0 (no effect)

====

Test system: Stellaria media
experiment: Herbicidal activity, preemergence test
Assay type: in vivo
conditionInfo: pre; sprayed onto soil, 800 g of active material per hectare; evaluated 3 weeks after treatment
Catalogue of molecules with associated STEME control rating (0-9)

Request: Form field - read-out: STEME control rating (0-9); system: Stellaria media; submitted item: C[C@H](NC(=O)c1nnc(-c2ccccc2)o1)c1ccccc1 [Example 4]
Response: 6 (herbicidal effect)

Request: Form field - read-out: STEME control rating (0-9); system: Stellaria media; submitted item: CC(NC(=O)c1nnc(C(C)(C)C)o1)c1cccs1 (racemic) [Example 5]
Response: 8 (approaching complete kill)

Request: Form field - read-out: STEME control rating (0-9); system: Stellaria media; submitted item: COc1ccc(-c2nnc(C(=O)N[C@@H](C)c3ccccc3)o2)cc1 [Example 19]
Response: 6 (herbicidal effect)

Request: Form field - read-out: STEME control rating (0-9); system: Stellaria media; submitted item: C[C@H](NC(=O)c1nnc(-c2c(Cl)cccc2Cl)o1)c1ccccc1 [Example 25]
Response: 0 (no effect)

====

Test system: Gossypium hirsutum
experiment: Herbicidal activity, postemergence test
Assay type: in vivo
conditionInfo: post; sprayed onto seedling plants, 800 g of active material per hectare; evaluated 2 weeks after treatment
Catalogue of compounds with associated GOSHI control rating (0-9)

For orientation, consider the following solved cases.
| compound | endpoint | result |
| --- | --- | --- |
| COc1ccc(-c2nnc(C(=O)N[C@@H](C)c3ccccc3)o2)cc1 [Example 19] | GOSHI control rating (0-9) | 9 (complete kill) |
| C[C@H](NC(=O)c1nnc(-c2ccc(Cl)cc2)o1)c1ccccc1 [Example 12] | GOSHI control rating (0-9) | 9 (complete kill) |

Request: Param item = C[C@H](NC(=O)c1nnc(-c2ccc(Cl)cc2Cl)o1)c1ccccc1 [Example 26] ; retrieve measured GOSHI control rating (0-9).
Response: 3 (moderate effect)

Request: Param item = CC(NC(=O)c1nnc(-c2ccccc2)o1)c1cccs1 (racemic) [Example 1] ; retrieve measured GOSHI control rating (0-9).
Response: 9 (complete kill)
